So I've got a bunch of molecules here, and I need their EC50 values.
target: human GLP-1 receptor (Homo sapiens); assay: GLP-1R cAMP assay (cAMP accumulation in CHO cells stably overexpressing the human GLP-1 receptor, HitHunter kit); conditions: CHO cells stably overexpressing human GLP-1R, 30 min, 20-point dose response in triplicate
Sequence (P43220 24-463): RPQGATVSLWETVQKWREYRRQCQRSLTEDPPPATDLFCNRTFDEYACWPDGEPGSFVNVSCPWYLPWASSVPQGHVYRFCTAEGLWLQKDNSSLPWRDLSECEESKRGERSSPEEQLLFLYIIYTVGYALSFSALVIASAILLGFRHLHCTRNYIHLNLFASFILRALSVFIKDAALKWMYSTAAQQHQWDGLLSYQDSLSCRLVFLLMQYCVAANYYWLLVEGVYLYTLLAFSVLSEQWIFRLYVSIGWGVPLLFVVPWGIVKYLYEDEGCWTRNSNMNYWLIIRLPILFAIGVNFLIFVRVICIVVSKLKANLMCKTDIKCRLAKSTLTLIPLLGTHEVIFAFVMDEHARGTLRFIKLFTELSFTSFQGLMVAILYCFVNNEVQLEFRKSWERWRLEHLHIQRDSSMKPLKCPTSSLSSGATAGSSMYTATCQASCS

For orientation, consider the following solved cases.
> print(dat)
                                   molecule       result
1  C[C@H]1C[C@@H](Oc2ccnc(COc3ncc(C#N)cc3F)n2)CCN1Cc1nc2ccc(C(=O)O)cc2n1CCOCC(F)(F)F [Compound 635]  0.1 to 1 nM
2  C[C@H]1C[C@@H](Oc2ccnc(COc3ccc(F)cc3F)n2)CCN1Cc1nc2ccc(C(=O)O)cc2n1C[C@H]1CCOC1 [Compound 575]  0.1 to 1 nM
3  O=C(O)c1cc(F)c2nc(CN3CCC(Oc4ccnc(COc5ncc(Cl)cc5F)c4)CC3)n(C[C@@H]3CCO3)c2c1 [Compound 613]  0.1 to 1 nM
4  O=C(O)c1cc(F)c2nc(CN3CCC(Oc4ccnc(COc5ncc(F)cc5F)n4)CC3)n(C[C@@H]3CCO3)c2c1 [Compound 628]  0.1 to 1 nM
5  C[C@H](Cn1c(CN2CC[C@H](Oc3ccnc(COc4ncc(C#N)cc4F)n3)C[C@@H]2C)nc2ccc(C(=O)O)cc21)OC(F)F [Compound 626]  0.1 to 1 nM

// input: 8 molecules below; output: EC50 for each
1. C[C@H]1C[C@@H](Oc2ccnc(COc3ccc(F)cc3F)n2)CCN1Cc1nc2ccc(C(=O)O)cc2n1CC12CC(CO1)C2 [Compound 570]
2. C[C@H]1C[C@@H](Oc2ccnc(COc3ccc(C#N)cc3F)n2)CCN1Cc1nc2ccc(C(=O)O)cc2n1CCOCC(F)(F)F [Compound 596]
3. C[C@H]1C[C@@H](Oc2ccnc(COc3ncc(F)cc3F)n2)CCN1Cc1nc2ccc(C(=O)O)cc2n1C[C@@H]1CCO1 [Compound 566]
4. C[C@H]1C[C@@H](Oc2ccnc(COc3ccc(Cl)cn3)n2)CCN1Cc1nc2c(F)cc(C(=O)O)cc2n1C[C@@H]1CCO1 [Compound 603]
5. N#Cc1cnc(OCc2nccc(OC3CCN(Cc4nc5c(F)cc(C(=O)O)cc5n4C[C@@H]4CCO4)CC3)n2)c(F)c1 [Compound 634]
6. CC[C@H]1C[C@@H](Oc2ccnc(COc3ncc(Cl)cc3F)n2)CCN1Cc1nc2ccc(C(=O)O)cc2n1C[C@@H]1CCO1 [Compound 608]
7. CC(c1nc2ccc(C(=O)O)cc2n1C[C@@H](O)CCO)N1CC[C@H](Oc2ccnc(COc3ccc(F)cc3F)n2)C[C@@H]1C (mixture of isomers) [Compound 569]
8. C[C@H]1C[C@@H](Oc2ccnc(COc3ccc(F)cc3F)n2)CCN1Cc1nc2ccc(CO)cc2n1C[C@@H]1CCO1 [Compound 639]

Response:
1. 0.1 to 1 nM
2. < 0.1 nM
3. 0.1 to 1 nM
4. < 0.1 nM
5. 0.1 to 1 nM
6. 0.1 to 1 nM
7. ≥ 500 nM
8. 10 to 100 nM

// input: 4 molecules below; output: EC50 for each
1. C[C@H]1C[C@@H](Oc2ccnc(COc3ncc(Cl)cc3F)n2)CCN1Cc1nc2ccc(C(=O)O)cc2n1CCOCC(F)(F)F [Compound 595]
2. C[C@H]1C[C@@H](Oc2ccnc(COc3ncc(Cl)cc3F)n2)CCN1Cc1nc2c(F)cc(C(=O)O)cc2n1C[C@@H]1CCO1 [Compound 597]
3. C[C@H]1C[C@@H](Oc2ccnc(COc3ccc(F)cc3F)n2)CCN1Cc1nc2ccc(C(=O)O)cc2n1CC1(F)COC1 [Compound 582]
4. C[C@H](Cn1c(CN2CC[C@H](Oc3ccnc(COc4ncc(F)cc4C#N)n3)C[C@@H]2C)nc2ccc(C(=O)O)cc21)OC(F)F [Compound 627]

Response:
1: 0.1 to 1 nM; 2: < 0.1 nM; 3: 0.1 to 1 nM; 4: 0.1 to 1 nM

// input: 4 molecules below; output: EC50 for each
1. C[C@H](Cn1c(CN2CC[C@H](Oc3ccnc(COc4ncc(F)cc4F)n3)C[C@@H]2C)nc2ccc(C(=O)O)cc21)OC(F)F [Compound 617]
2. C[C@H]1C[C@@H](Oc2ccnc(COc3ccc(F)cc3F)n2)CCN1Cc1nc2ccc(C(=O)O)cc2n1C[C@@H]1CCCO1 [Compound 589]
3. C[C@H]1C[C@@H](Oc2ccnc(COc3ccc(F)cc3C#N)n2)CCN1Cc1nc2ccc(C(=O)O)cc2n1C[C@H]1CCOC1 [Compound 558]
4. C[C@H]1C[C@@H](Oc2ccnc(COc3ccc(C#N)cc3F)n2)CCN1Cc1nc2ccc(C(=O)O)cc2n1C[C@@H]1CCOC1 [Compound 578]

Response:
< 0.1 nM
0.1 to 1 nM
0.1 to 1 nM
0.1 to 1 nM

// input: 3 molecules below; output: EC50 for each
1. C[C@H]1C[C@@H](Oc2ccnc(COc3ccc(F)cc3F)n2)CCN1Cc1nc2ccc(C(=O)O)cc2n1C[C@H]1CCS1(=O)=O [Compound 610]
2. C[C@H]1C[C@@H](Oc2ccnc(COc3ncc(C#N)cc3F)c2)CCN1Cc1nc2c(F)cc(C(=O)O)cc2n1C[C@@H]1CCO1 [Compound 625]
3. C[C@H]1C[C@@H](Oc2ccnc(COc3ccc(F)cc3F)n2)CCN1Cc1nc2ccc(C(=O)O)cc2n1CCOCC(F)(F)F [Compound 588]

Response:
0.1 to 1 nM
1 to 10 nM
< 0.1 nM

Request: So what EC50 did C[C@H]1C[C@@H](Oc2ccnc(COc3ccc(F)cc3F)n2)CCN1Cc1nc2ccc(C(=O)Nc3cccnc3)cc2n1C[C@@H]1CCO1 [Compound 638] get with human GLP-1 receptor (Homo sapiens)?
Response: 10 to 100 nM

FYI, the data here is from patent US20260317309A1.
